- System Name: B-Raf (Homo sapiens, UniProt P15056, V600E)
- Sequence (P15056 whole entry V600E): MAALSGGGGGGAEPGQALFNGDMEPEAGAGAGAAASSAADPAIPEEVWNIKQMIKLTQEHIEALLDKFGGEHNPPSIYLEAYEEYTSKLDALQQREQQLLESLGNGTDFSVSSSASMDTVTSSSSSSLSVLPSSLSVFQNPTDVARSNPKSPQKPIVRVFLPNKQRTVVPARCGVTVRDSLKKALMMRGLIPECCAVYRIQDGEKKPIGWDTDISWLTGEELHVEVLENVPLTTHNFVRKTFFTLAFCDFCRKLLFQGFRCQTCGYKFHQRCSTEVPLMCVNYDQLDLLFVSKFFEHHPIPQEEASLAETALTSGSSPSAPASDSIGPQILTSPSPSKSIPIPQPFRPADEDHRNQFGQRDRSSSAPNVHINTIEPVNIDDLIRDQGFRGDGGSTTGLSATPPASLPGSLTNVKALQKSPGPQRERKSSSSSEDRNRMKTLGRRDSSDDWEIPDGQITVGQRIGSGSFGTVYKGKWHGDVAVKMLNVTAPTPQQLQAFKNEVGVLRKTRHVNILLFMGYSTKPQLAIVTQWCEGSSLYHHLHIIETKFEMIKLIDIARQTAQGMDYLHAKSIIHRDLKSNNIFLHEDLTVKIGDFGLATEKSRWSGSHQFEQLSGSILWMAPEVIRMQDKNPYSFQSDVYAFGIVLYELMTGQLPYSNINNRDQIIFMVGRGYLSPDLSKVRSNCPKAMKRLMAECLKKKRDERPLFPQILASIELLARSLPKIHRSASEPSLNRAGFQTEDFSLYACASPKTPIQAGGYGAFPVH
- Test Description: B-Raf CETSA HT single-concentration screen of kinase inhibitor library
- Type: cell-based
- Test Conditions: 30 µM, 2 h incubation with live A375 cells, 49 °C heatshock, two technical repeats
Measurement Name: Thermal stabilization of B-Raf in CETSA HT screen (hit call)

| Smiles Code | Recorded Measurement |
| --- | --- |
| OCCn1cc(-c2ccc3c(c2)CC/C3=N\O)c(-c2ccncc2)n1 | hits |
| CCCS(=O)(=O)Nc1ccc(F)c(C(=O)c2c[nH]c3ncc(-c4ccc(Cl)cc4)cc23)c1F | active |
| COc1cc2ncnc(Oc3cccc(NC(=O)Nc4cc(C(C)(C)C(F)(F)F)on4)c3)c2cc1OC | hits |
| CC(C)(C)c1nc(-c2cccc(NS(=O)(=O)c3c(F)cccc3F)c2F)c(-c2ccnc(N)n2)s1 | active |

Source listed as paper PMC6484527.
